These measurements were taken from the supplement of paper PMC10567573.

B1: SLC22A15 (parent)
chain: IAQYALLGYFIRSWRTLAILVNLQ

- Variants of: B1
- Measurement protocol: protein stability index of a GFP-peptide fusion (GPS, HEK-293T) (PSI 1-6); higher = more stable;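 note: lentivirally expressed fusions sorted by FACS into six bins by GFP to DsRed ratio, PSI derived from sequencing read proportions per bin multiplied by bin number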
- Condition label: c terminus: a fixed tail appended
# reported protein stability index; entries follow
Please respond with just the number, no unit label.

>>> recorded_value("IACYALLGYFIRSWRTLAILVNLQ [Q3C]")
3.46
>>> recorded_value("IAQYALLGYFIRSWRTLAILVNLC [Q24C]")
2.35
>>> recorded_value("IAQYALLGYFIRSWRTLAILVWLQ [N22W]")
3.89
>>> recorded_value("IAQYALLGYFIRSWRTLAMLVNLQ [I19M]")
2.84
>>> recorded_value("IAQYALLGYFIRSWRTLAIHVNLQ [L20H]")
3.94
>>> recorded_value("IAQYALLGYFIRSQRTLAILVNLQ [W14Q]")
3.34
>>> recorded_value("IAQYALLGYFIRSWRTLAILVNLD [Q24D]")
2.49
>>> recorded_value("IAQYALLGYFIRSWRTLAILVNQQ [L23Q]")
3.66
>>> recorded_value("IAQYALLGYFIRSWWTLAILVNLQ [R15W]")
3.4
>>> recorded_value("IAQWALLGYFIRSWRTLAILVNLQ [Y4W]")
2.78

Entry IAQYALCGYFIRSWRTLAILVNLQ [L7C] ; protein stability index = 3.99
